- Measurement Target: T1, human MSLN-R3-his protein (human, UniProt Q13421 487-598)
- T1 construct: Self-made in HEK293E cells; also called human MSLN-R3 protein; hMSLN-R3-his; not shown: His tag
- T1 sequence (Q13421 495-606): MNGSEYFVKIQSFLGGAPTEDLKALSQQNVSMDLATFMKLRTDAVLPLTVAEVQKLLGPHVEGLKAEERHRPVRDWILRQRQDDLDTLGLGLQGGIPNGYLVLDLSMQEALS
- Procedure Details: ELISA on coated antigen, antibody 1 nM
Metric: OD450 (OD450)
// units = OD450; emit number, no label

Known results for binders:
S009-F2.47.1 (antibody, human IgG1, kappa, V domains shown, Human-murine chimeric antibody: murine VH/VL on human IgG1 heavy and kappa light constant regions) VH: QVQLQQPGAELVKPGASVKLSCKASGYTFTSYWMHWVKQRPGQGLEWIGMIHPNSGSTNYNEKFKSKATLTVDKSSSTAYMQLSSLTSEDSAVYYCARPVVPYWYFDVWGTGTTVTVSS VL: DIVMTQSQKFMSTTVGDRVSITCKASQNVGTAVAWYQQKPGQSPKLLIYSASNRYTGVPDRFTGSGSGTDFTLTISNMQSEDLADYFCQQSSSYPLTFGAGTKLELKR : 0.05
S009-F2.13.3 (antibody, human IgG1, kappa, V domains shown, Human-murine chimeric antibody: murine VH/VL on human IgG1 heavy and kappa light constant regions) VH: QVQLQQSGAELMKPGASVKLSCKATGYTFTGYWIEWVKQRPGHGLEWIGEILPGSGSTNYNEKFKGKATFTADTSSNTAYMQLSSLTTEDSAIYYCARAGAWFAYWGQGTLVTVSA VL: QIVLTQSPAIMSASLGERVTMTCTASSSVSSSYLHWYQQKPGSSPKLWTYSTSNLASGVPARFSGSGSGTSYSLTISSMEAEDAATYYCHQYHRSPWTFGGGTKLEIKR : 0.05

Alright, here's another binder for you.
Enquiry: Could you tell me which OD450 is on file for S009-F2.58.8 (antibody, human IgG1, kappa, V domains shown, Human-murine chimeric antibody: murine VH/VL on human IgG1 heavy and kappa light constant regions) VH: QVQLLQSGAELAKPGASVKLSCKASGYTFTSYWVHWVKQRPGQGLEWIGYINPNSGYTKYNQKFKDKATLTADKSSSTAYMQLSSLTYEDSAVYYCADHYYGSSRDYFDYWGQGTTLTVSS VL: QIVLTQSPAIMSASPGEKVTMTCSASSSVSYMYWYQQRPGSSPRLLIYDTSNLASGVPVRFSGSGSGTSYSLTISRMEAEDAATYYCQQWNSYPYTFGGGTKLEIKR ?
Return: 0.05
